Measured values drawn from PubChem BioAssay AID1903 for this set.

Parameter IC50, tested on Large T antigen (Simian virus 40), listed per item.

Please report IC50 for every entry that follows.
1. C#CCOCCOCCOCCNc1nc(N2CCN(C(=O)CCCCCCCCCCNC(=O)[C@H]([C@@H](C)CC)n3cc(CCCCN=C(N)N)nn3)CC2)nc(N2CCN(C(=O)CCCCCCCCCCNC(=O)[C@H](CCCCN)n3cc(C[C@@H](C)CC)nn3)CC2)n1
2. C#CCOCCOCCOCCNc1nc(N2CCN(C(=O)CCCCCCCCCCNC(=O)[C@H](CCCN=C(N)N)n3cc(C[C@@H](C)CC)nn3)CC2)nc(N2CCN(C(=O)CCCCCCCCCCNC(=O)[C@@H]([C@H](C)CC)n3cc(CCCCCN)nn3)CC2)n1
3. CCCCC1(C)OC(=O)C(=Cc2ccc(-c3ccc(Cl)c(C(=O)O)c3)o2)C(=O)O1 (stereo not drawn)

1: 13.1 µM; 2: 18.6 µM; 3: 17.2 µM
